Target: p90 ribosomal S6 kinase 2 (RSK2), N-terminal kinase domain (mRSK2NTKD) (Mus musculus)
Sequence (P18654 45-346): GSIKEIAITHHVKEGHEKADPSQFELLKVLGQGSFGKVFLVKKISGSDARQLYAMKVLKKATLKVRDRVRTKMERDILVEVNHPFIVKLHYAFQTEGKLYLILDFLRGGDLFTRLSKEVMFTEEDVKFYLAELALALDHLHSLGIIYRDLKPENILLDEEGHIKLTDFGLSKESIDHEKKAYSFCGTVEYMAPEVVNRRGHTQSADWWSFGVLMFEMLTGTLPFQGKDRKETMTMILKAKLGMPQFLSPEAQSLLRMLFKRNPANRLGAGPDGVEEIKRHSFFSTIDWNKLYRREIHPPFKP
Experiment: ITC
Type: binding
Reported endpoint: pKd
// field semantics: pKd = negative decimal log of concentration (mol/L)

Ask: Would you mind telling me what pKd value was observed for `Nc1ncnc2c1ncn2[C@@H]1O[C@H](COP(=O)(O)OP(=O)(O)NP(=O)(O)O)[C@@H](O)[C@H]1O` ?
Reply: 4.30
